- TARGET OR TEST SYSTEM: UniProt:P08912
- Sequence (P08912 whole entry): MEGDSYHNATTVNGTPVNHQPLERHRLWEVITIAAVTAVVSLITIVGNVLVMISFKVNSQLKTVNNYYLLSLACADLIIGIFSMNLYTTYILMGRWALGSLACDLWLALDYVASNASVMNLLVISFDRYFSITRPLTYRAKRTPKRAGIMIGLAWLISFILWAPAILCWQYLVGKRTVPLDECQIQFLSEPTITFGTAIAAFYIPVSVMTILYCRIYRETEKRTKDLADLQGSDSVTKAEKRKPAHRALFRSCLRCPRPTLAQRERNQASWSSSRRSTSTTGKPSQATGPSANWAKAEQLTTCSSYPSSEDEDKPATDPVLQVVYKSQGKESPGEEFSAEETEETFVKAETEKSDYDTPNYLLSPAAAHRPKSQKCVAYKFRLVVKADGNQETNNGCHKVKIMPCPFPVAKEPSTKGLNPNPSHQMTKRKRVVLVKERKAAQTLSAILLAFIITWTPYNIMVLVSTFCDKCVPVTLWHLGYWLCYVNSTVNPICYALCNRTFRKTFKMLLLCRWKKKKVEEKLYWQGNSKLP
- PROTOCOL: Positive allosteric modulation of human M5 receptor expressed in CHOK1 cells by calcium mobilization assay
pEC50: −log10 of the molar value.

COMPOUND STRUCTURE STRING	pEC50
Cc1ccc(OC2CCN(c3ncnc4ccc(F)cc34)CC2)cn1	< 5.00

---

- TARGET OR TEST SYSTEM: UniProtKB P08173
- Sequence (P08173 whole entry): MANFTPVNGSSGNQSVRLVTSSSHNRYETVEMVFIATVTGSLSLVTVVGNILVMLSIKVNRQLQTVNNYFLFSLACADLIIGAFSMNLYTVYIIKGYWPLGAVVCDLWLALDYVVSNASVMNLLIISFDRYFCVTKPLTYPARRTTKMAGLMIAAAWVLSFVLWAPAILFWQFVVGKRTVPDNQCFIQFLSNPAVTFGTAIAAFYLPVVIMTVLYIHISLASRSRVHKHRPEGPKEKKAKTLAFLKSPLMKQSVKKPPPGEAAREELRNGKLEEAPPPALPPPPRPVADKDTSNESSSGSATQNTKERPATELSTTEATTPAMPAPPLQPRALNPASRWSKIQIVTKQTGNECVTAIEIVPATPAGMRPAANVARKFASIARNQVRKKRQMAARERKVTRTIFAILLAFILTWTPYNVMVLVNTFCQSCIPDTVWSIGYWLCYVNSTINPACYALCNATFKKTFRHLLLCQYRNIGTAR
- PROTOCOL: Positive allosteric modulation of human M4 receptor expressed in CHO cells coexpressing Gqi5 by calcium mobilization assay
- Format: functional, cell-based
- PARTICULARS: read-out: EC50
pEC50: −log10 of the molar value.
TEST READOUT: pEC50

COMPOUND STRUCTURE STRING	TEST READOUT	TEST RESULT
Cc1sc2ncnc(N3CCC(C(=O)N4CCSCC4)CC3)c2c1C	pEC50	6.09
Cc1sc2ncnc(N3CCC(C(=O)Nc4ccc(S(C)(=O)=O)cc4)CC3)c2c1C	pEC50	6.07
Cc1sc2ncnc(N3CCC(C(=O)N4CC[C@H](F)C4)CC3)c2c1C	pEC50	6.01
Cc1ccc(OC2CCN(c3nc(C)nn4ccc(C)c34)CC2)cn1	pEC50	5.96
Cc1sc2ncnc(N3CCC(C(=O)N4CCCC4)CC3)c2c1C	pEC50	5.96
Cc1ccc(OC2CCN(c3cc(C)nc4ccc(F)cc34)CC2)cn1	pEC50	6.16
Cc1ccc2ncnc(N3CCC(Oc4ccc(C)nc4)CC3)c2c1	pEC50	5.92
Cc1sc2ncnc(N3CCC(C(=O)N4CCCc5cc(S(C)(=O)=O)ccc54)CC3)c2c1C	pEC50	6.02

---

- PROTOCOL: Ratio of unbound brain-to-plasma concentration in Sprague-Dawley rat at 0.2 to 0.25 mg/kg, iv administered as cassette dose after 0.25 hrs
- Assay type: ADME, organism-based

COMPOUND STRUCTURE STRING	K(p,uu,brain)
Cc1ccc(OC2CCN(c3ncnc4sc(C)c(C)c34)CC2)cn1	0.74
Cc1ccc(OC2CCN(c3cc(C)nc4ccc(F)cc34)CC2)cn1	18.2
Cc1sc2ncnc(N3CCC(Oc4ccc5c(c4)CCO5)CC3)c2c1C	1.38
Cc1sc2ncnc(N3CCC(C(=O)N4CC[C@H](F)C4)CC3)c2c1C	0.12
Cc1sc2ncnc(N3CCC(Oc4ccc(Cl)nc4)CC3)c2c1C	0.17
Cc1ccc(OC2CCN(c3nc(C)nn4ccc(C)c34)CC2)cn1	1.95

---

- PROTOCOL: Ratio of brain to plasma partition coefficient in Sprague-Dawley rat at 0.2 to 0.25 mg/kg, iv administered as cassette dose after 0.25 hrs
- Format: ADME, organism-based
- PARTICULARS: brain, 0.25 h
Listed next: entries and their corresponding Kp.
TEST READOUT: Kp

COMPOUND STRUCTURE STRING	TEST RESULT
Cc1ccc(OC2CCN(c3ncnc4ccc(F)cc34)CC2)cn1	11.1
Cc1ccc(OC2CCN(c3nc(C)nn4ccc(C)c34)CC2)cn1	1.42
Cc1sc2ncnc(N3CCC(Oc4ccc5c(c4)CCO5)CC3)c2c1C	1.25
